Catalogue of EC50 readings, one per entry.
target: UniProt Q12809; assay: Inhibition of human ERG by patch clamp assay
Sequence (Q12809 whole entry): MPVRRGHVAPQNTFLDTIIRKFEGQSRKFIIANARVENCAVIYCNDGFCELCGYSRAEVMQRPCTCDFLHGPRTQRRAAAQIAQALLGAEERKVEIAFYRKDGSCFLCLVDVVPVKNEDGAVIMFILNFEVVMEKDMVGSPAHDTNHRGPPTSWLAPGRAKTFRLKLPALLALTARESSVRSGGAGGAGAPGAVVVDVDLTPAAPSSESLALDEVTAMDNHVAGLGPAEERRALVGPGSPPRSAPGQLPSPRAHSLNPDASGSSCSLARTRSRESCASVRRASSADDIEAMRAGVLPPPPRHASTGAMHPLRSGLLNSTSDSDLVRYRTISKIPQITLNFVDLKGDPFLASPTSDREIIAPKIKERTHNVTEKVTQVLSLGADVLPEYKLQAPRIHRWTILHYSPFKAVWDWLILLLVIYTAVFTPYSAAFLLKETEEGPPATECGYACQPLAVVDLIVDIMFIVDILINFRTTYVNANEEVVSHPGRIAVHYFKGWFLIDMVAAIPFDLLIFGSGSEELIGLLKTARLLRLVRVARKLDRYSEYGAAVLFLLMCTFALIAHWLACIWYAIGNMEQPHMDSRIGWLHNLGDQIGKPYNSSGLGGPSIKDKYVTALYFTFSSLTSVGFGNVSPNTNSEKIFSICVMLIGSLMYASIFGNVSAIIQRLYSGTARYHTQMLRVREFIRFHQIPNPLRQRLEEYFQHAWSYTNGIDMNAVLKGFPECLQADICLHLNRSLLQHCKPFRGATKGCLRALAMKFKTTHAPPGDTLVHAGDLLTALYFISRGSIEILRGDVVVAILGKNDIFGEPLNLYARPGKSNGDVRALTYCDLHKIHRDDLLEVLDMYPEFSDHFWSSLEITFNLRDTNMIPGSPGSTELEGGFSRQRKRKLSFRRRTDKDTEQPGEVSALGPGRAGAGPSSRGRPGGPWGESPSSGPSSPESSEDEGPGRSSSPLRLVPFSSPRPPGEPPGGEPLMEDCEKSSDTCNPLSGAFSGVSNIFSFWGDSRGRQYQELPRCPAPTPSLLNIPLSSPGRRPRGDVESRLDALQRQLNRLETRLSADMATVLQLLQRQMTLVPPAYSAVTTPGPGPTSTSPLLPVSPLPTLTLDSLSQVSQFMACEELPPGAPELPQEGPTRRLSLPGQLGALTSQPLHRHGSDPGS

structure.string: O=c1cc(Cn2c(C3CCC3)nc3nccnc32)c2ccc(F)c(F)c2[nH]1
assay.system: UniProt Q12809
EC50: > 30 µM

Please find the next compound below.
Entry under review: `CC(C)Cc1nc2nccnc2n1Cc1cc(=O)[nH]c2c(F)c(F)ccc12` . Reported EC50?
> 30 µM

* * *

experiment: AUC in mouse at 3 mg/kg, iv and 10 mg/kg, po; type: ADME, organism-based; conditions: plasma
Recorded AUC, one value per entry.

Report AUC for `O=c1cc(Cn2c(C3CCC3)nc3nccnc32)c2cccc(F)c2[nH]1` please.
25000 ng·h/mL

Quick one: AUC for `Cc1ncsc1-c1nc2ccccc2n1Cc1cc(=O)[nH]c2c(F)c(F)ccc12` ?
5670 ng·h/mL

AUC lookup needed for `CC(C)c1nc2ccccc2n1Cc1cc(=O)[nH]c2c(F)c(F)ccc12` , thanks.
19300 ng·h/mL
